Assay: optical density shifts of acrAB sulA E. coli – strain DRC41, OD650, 48 h, E. coli filamentation inducer project, primary screen (AID 1152);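 further: E. coli MC1000 strain DRC41 lacking acrAB efflux pump and sulA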
Settings: higher = more signal, called active from +8 up or from −8 down
Consider the following compounds; for each one, report its z-score.
# print the numeric value only

Input: Quick check: z-score of COc1ccc(C#Cc2ccc3c(c2)[C@]2(C(=O)N3)[C@H](C(=O)N3CCc4cc(OC)c(OC)cc4C3)[C@H]3C(=O)O[C@H](c4ccccc4)[C@H](c4ccccc4)N3[C@@H]2c2ccc(OCCO)cc2)cc1 ?
Output: 1.82

Input: Quick check: z-score of CC(=O)n1cc(C(O)C2C=CC3C(=O)N(c4ccccc4)C(=O)C3N2Nc2ccc(C#N)cc2)c2ccccc21 (stereo not drawn) ?
Output: -0.947

Input: Quick check: z-score of COc1ccc(CCNC(=O)[C@@]2(C)c3ccccc3C(=O)N(Cc3ccccc3)[C@H]2c2ccc(CO)cc2)cc1 ?
Output: 1.09

Where do the numbers come from? From PubChem BioAssay.
